Target: PPARδ (Homo sapiens, UniProt Q03181)
Sequence (Q03181 171-441 limits assumed): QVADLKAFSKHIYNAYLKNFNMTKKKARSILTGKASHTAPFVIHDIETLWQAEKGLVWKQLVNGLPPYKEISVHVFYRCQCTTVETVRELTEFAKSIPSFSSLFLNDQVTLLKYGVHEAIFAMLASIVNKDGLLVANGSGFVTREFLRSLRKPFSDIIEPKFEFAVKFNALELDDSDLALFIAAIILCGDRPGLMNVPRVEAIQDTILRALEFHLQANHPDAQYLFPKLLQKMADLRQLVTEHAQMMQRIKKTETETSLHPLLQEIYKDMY
Experiment: Transfection assay for PPARδ receptors (PPAR-Gal4 / Gal4-luciferase reporter in HEK293 cells)
Format: cell-based
Details: bracketed values
Observable: EC50

In plain terms, CCN(C(=O)Nc1ccc(C(C)(C)C)cc1)C1CCc2cc(SC(C)(C)C(=O)O)c(OC)cc2C1 (stereo not shown) has a documented EC50 of > 3 µM

The values you see were collected from patent US7351857B2.
